Target: GCN2_T
Assay: two-hybrid library CCmax;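 note: natural log of median RNA to DNA barcode read ratio; higher means stronger binding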
observation.type: interaction score

DEIAALEAKNAALKAKNAALKAKIAALKG [4H510-AA]
-1.77
DELAAIEAEIAALEAKKAALKAKNAALKG [AP3-AA]
-1.8
DEIAALEAKNAALKAENAALEAEIAALEG [4H465-AA]
-1.97

I: DEIAALEAENAALEAKIAALKAKNAALEG [4H175-AA]
II: DEIAALEAKIAALKAKIAALEAENAALEG [4H355-AA]
[Q] Quick check, higher interaction score between I and II ? # reply format: chosen label
[A] I
